// log10(EC50) lookup, one value per entry
System: SKBR3 Cells
measurement notes: SKBR3 Cell Viability Assay
Type: cell-based
protocol conditions: 72 hours, CellTiter Glo luminescence, read-out: MCL-1 CV SKBR3 EC50
measured attribute: log10(EC50) (log10 of the value in µM)

[
  {
    "compound": "CO[C@H]1/C=C/C[C@H](C)C[S@@](=O)(NC(=O)N2CC(C(C)(C)O)C2)=NC(=O)c2ccc3c(c2)N(C[C@@H]2CC[C@H]21)C[C@@]1(CCCc2cc(Cl)ccc21)CO3",
    "log10(EC50)": -0.92
  },
  {
    "compound": "CO[C@H]1/C=C/CCC[S@@](=O)(NC(=O)c2cc3ccccc3n2C)=NC(=O)c2ccc3c(c2)N(C[C@@H]2CC[C@H]21)C[C@@]1(CCCc2cc(Cl)ccc21)CO3",
    "log10(EC50)": 0.34
  },
  {
    "compound": "CCC1CN(C(=O)N[S@@]2(=O)=NC(=O)c3ccc4c(c3)N(C[C@@H]3CC[C@H]3[C@@H](OC)/C=C/C[C@H](C)C2)C[C@@]2(CCCc3cc(Cl)ccc32)CO4)C1",
    "log10(EC50)": -1.08
  },
  {
    "compound": "COc1nn(C)cc1C(=O)N[S@@]1(=O)=NC(=O)c2ccc3c(c2)N(C[C@@H]2CC[C@H]2[C@@H](OC(=O)OC(C)C)/C=C/C[C@H](C)C1)C[C@@]1(CCCc2cc(Cl)ccc21)CO3",
    "log10(EC50)": -0.81
  },
  {
    "compound": "CO[C@H]1/C=C/CCC[S@@](=O)(NC(=O)CCc2ccccc2)=NC(=O)c2ccc3c(c2)N(C[C@@H]2CC[C@H]21)C[C@@]1(CCCc2cc(Cl)ccc21)CO3",
    "log10(EC50)": -0.10
  },
  {
    "compound": "CO[C@H]1/C=C/C[C@H](C)C[S@@](=O)(NC(=O)[C@H]2Cc3ccccc3CO2)=NC(=O)c2ccc3c(c2)N(C[C@@H]2CC[C@H]21)C[C@@]1(CCCc2cc(Cl)ccc21)CO3 (single isomer, unassigned)",
    "log10(EC50)": -0.66
  },
  {
    "compound": "CO[C@H]1/C=C/CCC[S@@](=O)(NC(=O)COc2ccccc2)=NC(=O)c2ccc3c(c2)N(C[C@@H]2CC[C@H]21)C[C@@]1(CCCc2cc(Cl)ccc21)CO3",
    "log10(EC50)": -0.22
  },
  {
    "compound": "CO[C@H]1/C=C/CCC[S@@](=O)(NC(=O)CCc2c(C)cnn2C)=NC(=O)c2ccc3c(c2)N(C[C@@H]2CC[C@H]21)C[C@@]1(CCCc2cc(Cl)ccc21)CO3",
    "log10(EC50)": 1.00
  },
  {
    "compound": "CO[C@H]1/C=C/CCC[S@@](=O)(NC(=O)COc2ccnn2C)=NC(=O)c2ccc3c(c2)N(C[C@@H]2CC[C@H]21)C[C@@]1(CCCc2cc(Cl)ccc21)CO3",
    "log10(EC50)": 0.35
  },
  {
    "compound": "CO[C@H]1/C=C/C[C@H](C)C[S@@](=O)(NC(=O)N2CC3(CCCO3)C2)=NC(=O)c2ccc3c(c2)N(C[C@@H]2CC[C@H]21)C[C@@]1(CCCc2cc(Cl)ccc21)CO3",
    "log10(EC50)": -1.40
  }
]
